- Tgt: Nuclear receptor ROR-gamma (Homo sapiens) (UniProt P51449)
- Experiment Notes: qHTS assay to identify small molecule antagonists of the retinoid-related orphan receptor gamma (ROR-gamma) signaling pathway (AID 1159521; note: nearly all actives have a fitted effect of over 50% in size)
- Setup Conditions: Tet-on RORgamma CHO cells, RORE-luciferase, 16 h; series mostly up to 92.4 µM
Inconclusive results are not listed. Calls of active or inactive are those of the source. Calls come from the whole dose curve; as a rule, active = well fitted inhibition curve with a large enough effect in the repeat runs; inconclusive = weak or mixed curves, or effect the other way; inactive = no such curve, though single readings can be large or run the other way.
Possible outcomes: T = active, F = inactive

{"columns": ["Compound", "Qualitative Label"],
 "data": [
  ["Nc1ccccc1O", "F"],
  ["OCCN1CCN(CC/C=C2/c3ccccc3Sc3ccc(C(F)(F)F)cc32)CC1", "T"],
  ["CSc1ccc(C(=O)c2[nH]c(=O)[nH]c2C)cc1", "F"],
  ["O=C(Nc1cccc([N+](=O)[O-])c1)c1cc2ccccc2cc1O", "T"],
  ["O=C1CCCCCN1SSN1CCCCCC1=O", "T"],
  ["CSc1ccc(/C=C2/C(C)=C(CC(=O)O)c3cc(F)ccc32)cc1", "F"],
  ["COc1ccc(C(=O)/C(Br)=C\\C(=O)O)cc1", "F"],
  ["CC(C)(C)c1ccc(C(=O)CCCN2CCC(OC(c3ccccc3)c3ccccc3)CC2)cc1", "T"],
  ["CCOC(=O)c1nc(C(Cl)(Cl)Cl)n(-c2ccc(Cl)cc2Cl)n1", "T"],
  ["O=c1[nH]cnc2nc[nH]c12", "F"],
  ["CCCC(C)c1ccccc1O (stereo unspecified)", "F"],
  ["CN(C/C=C/C#CC(C)(C)C)Cc1cccc2ccccc12", "F"],
  ["O=c1c(-c2ccccc2)c1-c1ccccc1", "T"],
  ["CCCCN(CCCC)c1ccc(C(=O)c2ccccc2C(=O)O)c(O)c1", "F"],
  ["O=C1c2ccccc2Cc2ccccc21", "F"],
  ["CCCCN1CCCC[C@H]1C(=O)Nc1c(C)cccc1C", "F"]
]}

----------
- Experiment Notes: qHTS assay to identify small molecule agonists of the peroxisome proliferator-activated receptor delta (PPARd) signaling pathway - cell viability counter screen (AID 743211); note: nearly all actives have a fitted effect of over 55% in size
- Setup Conditions: PPARd-bla HEK293H viability, CellTiter-Glo luminescence, 17 h; series mostly up to 62.6 µM
Results filed as inconclusive are left out. Calls of active or inactive are those of the source. The call rests on the fitted dose curve; in most records, active means well fitted cell-killing curve with a large enough effect in the repeat runs; inconclusive means weak or mixed curves; inactive means no such curve, though single readings can be large or run the other way.
Possible outcomes: active, inactive

{"columns": ["Compound", "Qualitative Label"],
 "data": [
  ["C/C=C(\\C)C(=O)OCc1ccccc1", "inactive"],
  ["CSc1ccc2c(c1)C(N1CCN(C)CC1)Cc1ccccc1S2 (stereo unspecified)", "active"],
  ["CCCCN1C(=O)[C@@H]([C@H](O)C2CCCCC2)NC(=O)C12CCN(Cc1ccc(Oc3ccc(C(=O)O)cc3)cc1)CC2", "inactive"],
  ["CC(C)(C)C1CCC(CC2=C(O)c3ccccc3C(=O)C2=O)CC1 (stereo unspecified)", "inactive"],
  ["CC(C)(C)C(=O)OCOC(=O)[C@@H]1N2C(=O)[C@@H](NC(=O)[C@H](N)c3ccccc3)[C@H]2SC1(C)C", "inactive"],
  ["CCCCCCCCCCCCCCCCCC[N+](C)(C)Cc1ccccc1", "active"],
  ["O=C(c1ccc(O)cc1O)c1ccc(O)cc1O", "inactive"],
  ["CCCCCCCCOC(=O)c1ccc(O)cc1", "active"],
  ["O=C1Cc2cc(CCN3CCN(c4nsc5ccccc45)CC3)c(Cl)cc2N1", "active"],
  ["Oc1cc2ccccc2c2ccccc12", "active"],
  ["Cc1cc(O)c(C(C)(C)C)cc1Sc1cc(C(C)(C)C)c(O)cc1C", "active"]
]}
